Assay: gradient 5% acetonitrile 3 min, to 50% in 2 min, to 85% in 15 min, held 3 min, 100 µL/min
Conditions: column: Zorbax Extend-C18 2.1 x 50 mm; eluents: water / acetonitrile, 0.1% formic acid
PARAMETER: RP-LC retention time (s)

The following compounds have reported results that may help.
- COMPOUND: "Cc1nc(-c2cccs2)c(CC(=O)N2CCN(c3ccccn3)CC2)s1"
  RP-LC retention time [s]: 607
- COMPOUND: "CC(C)Cn1cc(S(=O)(=O)Nc2cccc(Cl)c2)c2cccnc21"
  RP-LC retention time [s]: 912

[a] Cc1ccc(CNC(=O)c2cc3sccc3n2Cc2ccc(F)cc2)cc1
[b] COc1cccc(C2CC(c3ccc(F)cc3)=NC3(CCN(C(C)C)CC3)N2)c1O (stereo unspecified)
Please let me know which one, a or b , has a lower measured RP-LC retention time value. Identify your pick by its label.
b
(b: 608 s, a: 888 s)

Entry source: the METLIN SMRT retention time set (Domingo-Almenara et al. 2019)
